inhibition at 10 µM by entry:
target_or_test_system: SIRT3 (Homo sapiens, UniProt Q9NTG7)
Sequence (Q9NTG7 1-399): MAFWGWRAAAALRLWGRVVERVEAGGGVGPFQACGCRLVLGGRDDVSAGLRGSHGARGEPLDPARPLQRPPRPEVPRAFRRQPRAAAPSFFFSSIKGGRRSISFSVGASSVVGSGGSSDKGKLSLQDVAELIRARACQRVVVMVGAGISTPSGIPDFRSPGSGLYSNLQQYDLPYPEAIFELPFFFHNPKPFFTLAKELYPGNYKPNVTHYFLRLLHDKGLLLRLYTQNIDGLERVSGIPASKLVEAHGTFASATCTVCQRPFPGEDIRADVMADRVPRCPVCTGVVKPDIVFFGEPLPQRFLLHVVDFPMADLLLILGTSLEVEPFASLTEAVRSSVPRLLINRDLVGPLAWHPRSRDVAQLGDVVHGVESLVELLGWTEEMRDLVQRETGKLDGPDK
assay_summary: SIRT3 enzyme inhibitory assay (fluorescence)
Assay type: biochemical
condition_description: dose of 10 μM; mean of three experiments; read-out: SIRT3 percentage inhibitory rate
Just the number please, in %, no unit attached.

Please review the following examples before continuing.
molecule="C=CC(=O)Nc1ccc(-c2cc(C(=O)N3CCN(c4ccc(F)cc4)CC3)c3ccccc3n2)cc1 [Compound P1]" target_or_test_system="SIRT3 (Homo sapiens, UniProt Q9NTG7)" observed_measurement=20.2
molecule=C=CC(=O)Nc1ccc(-c2cc(C(=O)Nc3ccc(CC)cc3)c3ccccc3n2)cc1 target_or_test_system="SIRT3 (Homo sapiens, UniProt Q9NTG7)" observed_measurement=40.2
molecule=C=CC(=O)Nc1ccc(-c2cc(C(=O)N3CCN(c4ccc(OC)cc4)CC3)c3ccccc3n2)cc1 target_or_test_system="SIRT3 (Homo sapiens, UniProt Q9NTG7)" observed_measurement=24.9

Using known records, supply inhibition at 10 µM for "C=CC(=O)Nc1ccc(-c2cc(C(=O)N3CCN(C(C)C)CC3)c3ccccc3n2)cc1"
30.6
